- STUDY_SYSTEM: Vascular endothelial growth factor receptor 3 (Homo sapiens)
- Sequence (P35916 whole entry): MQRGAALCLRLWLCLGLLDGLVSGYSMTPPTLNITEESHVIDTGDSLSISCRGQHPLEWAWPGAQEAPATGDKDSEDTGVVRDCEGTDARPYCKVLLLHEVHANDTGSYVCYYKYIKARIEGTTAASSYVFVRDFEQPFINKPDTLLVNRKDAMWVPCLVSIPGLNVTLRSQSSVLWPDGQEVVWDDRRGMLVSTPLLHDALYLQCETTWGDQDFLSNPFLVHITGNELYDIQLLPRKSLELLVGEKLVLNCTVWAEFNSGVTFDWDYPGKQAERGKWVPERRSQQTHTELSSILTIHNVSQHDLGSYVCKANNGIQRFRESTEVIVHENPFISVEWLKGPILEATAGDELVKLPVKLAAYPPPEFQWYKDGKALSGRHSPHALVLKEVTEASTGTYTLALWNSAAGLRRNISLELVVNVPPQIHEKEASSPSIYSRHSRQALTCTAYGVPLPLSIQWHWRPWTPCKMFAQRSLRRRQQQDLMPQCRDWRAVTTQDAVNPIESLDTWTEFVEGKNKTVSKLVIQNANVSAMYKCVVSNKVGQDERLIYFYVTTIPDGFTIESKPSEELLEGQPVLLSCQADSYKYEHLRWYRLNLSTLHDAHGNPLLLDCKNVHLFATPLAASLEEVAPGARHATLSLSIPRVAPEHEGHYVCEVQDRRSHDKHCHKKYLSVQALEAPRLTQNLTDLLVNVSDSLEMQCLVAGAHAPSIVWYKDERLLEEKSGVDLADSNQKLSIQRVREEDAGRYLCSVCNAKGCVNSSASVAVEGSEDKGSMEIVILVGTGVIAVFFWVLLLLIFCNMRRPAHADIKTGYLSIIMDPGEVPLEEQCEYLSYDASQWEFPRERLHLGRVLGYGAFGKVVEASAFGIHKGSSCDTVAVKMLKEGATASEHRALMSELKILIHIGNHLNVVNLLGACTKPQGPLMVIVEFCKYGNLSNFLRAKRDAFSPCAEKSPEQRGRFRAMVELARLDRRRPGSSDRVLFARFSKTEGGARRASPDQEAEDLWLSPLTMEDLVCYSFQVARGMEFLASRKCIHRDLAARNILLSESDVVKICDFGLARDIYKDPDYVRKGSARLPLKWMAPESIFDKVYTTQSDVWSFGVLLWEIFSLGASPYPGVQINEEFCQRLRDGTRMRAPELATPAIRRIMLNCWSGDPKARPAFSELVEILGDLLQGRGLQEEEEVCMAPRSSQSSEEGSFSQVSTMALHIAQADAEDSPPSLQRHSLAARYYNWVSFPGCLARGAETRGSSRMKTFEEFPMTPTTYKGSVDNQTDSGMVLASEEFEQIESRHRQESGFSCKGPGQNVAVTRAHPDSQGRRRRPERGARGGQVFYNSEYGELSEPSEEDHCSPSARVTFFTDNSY
- MEASUREMENT_NOTES: Inhibition of VEGFR3 after 30 mins by chemiluminescence ELISA
Overview of recorded pIC50 for various molecules
When answering, recall that pIC50 equals minus log10 of the concentration in mol/L, and write that number alone.

> print(dat)
                                   molecule                              study.system  observed.measurement
1  NC1CCc2c(c3cc(OCCc4ccc(O)cc4)ccc3n2CCCCCc2ccc(C(F)(F)F)cc2)C1 (centres undefined)  Vascular endothelial growth factor receptor 3 (Homo sapiens)                  5.64
2  CSc1ccc(CCCCCn2cc(CCN)c3cc(OCCc4ccc(O)cc4)ccc32)cc1  Vascular endothelial growth factor receptor 3 (Homo sapiens)                  5.60
3  NCCc1cn(Cc2ccc(-c3cccc(C(F)(F)F)c3)cc2)c2ccc(OCCc3ccc(O)cc3)cc12  Vascular endothelial growth factor receptor 3 (Homo sapiens)                  5.52

What value of measured pIC50 is listed for COc1ccc(-c2ccc(Cn3cc(CCN)c4cc(OCCc5ccc(O)cc5)ccc43)cc2)cc1 ?
6.02

// same read-out, input: NCCc1c[nH]c2ccc(OCCc3ccc(O)cc3)cc12
5.58

// same read-out, input: NCCc1cn(Cc2ccc(-c3ccccc3)cc2)c2ccc(OCCc3ccc(O)cc3)cc12
5.39

// same read-out, input: COc1ccc(CCOc2ccc3c(c2)c(CCN)cn3CCCCCc2ccc(SC)cc2)cc1
5.88

// same read-out, input: NC1CCc2c(c3cc(OCCc4ccc(O)cc4)ccc3n2CCCCCc2ccccc2)C1 (centres undefined)
5.66

// same read-out, input: CN(C)c1ccc(CCCCCn2c3c(c4cc(OCCc5ccc(O)cc5)ccc42)CC(N)CC3)cc1 (centres undefined)
5.78

----------
- STUDY_SYSTEM: Vascular endothelial growth factor receptor 2 (Homo sapiens)
- Sequence (P35968 whole entry): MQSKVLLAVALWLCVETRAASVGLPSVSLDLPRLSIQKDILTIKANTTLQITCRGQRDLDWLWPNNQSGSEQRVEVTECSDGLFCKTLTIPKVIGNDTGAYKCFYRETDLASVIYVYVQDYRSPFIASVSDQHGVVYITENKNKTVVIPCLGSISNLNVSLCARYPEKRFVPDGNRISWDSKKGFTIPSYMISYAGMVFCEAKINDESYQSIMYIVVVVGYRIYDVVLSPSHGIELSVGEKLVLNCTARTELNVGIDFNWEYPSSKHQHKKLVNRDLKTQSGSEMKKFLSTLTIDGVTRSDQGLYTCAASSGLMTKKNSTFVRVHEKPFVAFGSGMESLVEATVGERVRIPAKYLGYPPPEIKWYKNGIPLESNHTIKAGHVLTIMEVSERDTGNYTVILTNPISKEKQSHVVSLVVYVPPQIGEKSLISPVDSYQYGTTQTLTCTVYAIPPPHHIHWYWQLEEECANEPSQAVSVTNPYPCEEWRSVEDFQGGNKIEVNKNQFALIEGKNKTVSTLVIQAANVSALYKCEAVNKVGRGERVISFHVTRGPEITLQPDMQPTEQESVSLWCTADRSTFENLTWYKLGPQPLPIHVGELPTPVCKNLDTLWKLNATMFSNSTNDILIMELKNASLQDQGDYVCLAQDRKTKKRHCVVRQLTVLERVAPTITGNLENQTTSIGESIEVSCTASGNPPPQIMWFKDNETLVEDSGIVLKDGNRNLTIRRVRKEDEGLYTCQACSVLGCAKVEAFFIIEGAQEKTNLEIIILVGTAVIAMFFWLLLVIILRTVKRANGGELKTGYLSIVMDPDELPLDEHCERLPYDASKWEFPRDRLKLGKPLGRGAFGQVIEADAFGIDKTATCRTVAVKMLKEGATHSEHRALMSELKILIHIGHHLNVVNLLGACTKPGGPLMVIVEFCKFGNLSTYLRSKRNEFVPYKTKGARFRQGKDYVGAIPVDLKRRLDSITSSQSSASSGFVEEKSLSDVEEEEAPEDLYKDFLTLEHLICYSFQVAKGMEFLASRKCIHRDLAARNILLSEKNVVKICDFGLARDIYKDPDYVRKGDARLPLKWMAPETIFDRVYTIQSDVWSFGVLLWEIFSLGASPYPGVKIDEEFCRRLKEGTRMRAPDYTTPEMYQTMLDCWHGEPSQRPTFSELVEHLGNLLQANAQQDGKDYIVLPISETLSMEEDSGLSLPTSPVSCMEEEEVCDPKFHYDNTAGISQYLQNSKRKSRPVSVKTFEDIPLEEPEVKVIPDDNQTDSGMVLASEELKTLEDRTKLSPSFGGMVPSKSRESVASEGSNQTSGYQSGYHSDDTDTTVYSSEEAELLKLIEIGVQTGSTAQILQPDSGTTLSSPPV
- MEASUREMENT_NOTES: Inhibition of VEGFR2 after 30 mins by chemiluminescence ELISA
METRIC: IC50 (µM)
// return numeric value only (unit: µM, not printed)

Example results:
> print(dat)
                                   compound  unit.abbrev  observed.measurement
1  NCCc1cn(Cc2ccc(-c3cccc(C(F)(F)F)c3)cc2)c2ccc(OCCc3ccc(O)cc3)cc12           µM                  1.56
2  NCCc1cn(CCCCCc2ccccc2)c2ccc(OCCc3ccc(O)cc3)cc12           µM                  2.83

What value of measured IC50 is listed for NC1CCc2c(c3cc(OCCc4ccc(O)cc4)ccc3n2CCCc2ccccc2)C1 (stereo not drawn) ?
2.07

// same read-out, input: NC1CCc2c(c3cc(OCCc4ccc(O)cc4)ccc3n2CCCCCc2ccccn2)C1 (stereo not drawn)
2.12

// same read-out, input: NCCc1c[nH]c2ccc(OCCc3ccc(O)cc3)cc12
2.03

// same read-out, input: COc1ccc(CCCCCn2c3c(c4cc(OCCc5ccc(O)cc5)ccc42)CC(N)CC3)cc1 (stereo not drawn)
0.94

// same read-out, input: COc1ccc(CCOc2ccc3c(c2)c(CCN)cn3CCCCCc2ccc(SC)cc2)cc1
1.45
